# tgt: T1, cyIL-1RAP(1-367)_F-chLys_Avi (cynomolgus, biotinylated (Avi tag) in SPR; unlabeled in SET)
# T1 construct: cynomolgus IL-1RAcP (21-367) is UniProt A0A2K5X5J5; also called cynomolgus IL-1RAcP (AG-12211)
# testDescription: solution equilibrium titration (SET), ECL read-out, IgG
measure: Kd
Reply with the number, then its unit.

Some entries whose results are on file:
{"columns": ["binder", "result"],
 "data": [
  ["R001032 (1A05) (antibody, human IgG1, kappa, V domains shown, Rabbit variable domains of prior art 1A05 on human IgG1 kappa constant regions with AEASS; also called P013.S.01.B.A05) VH: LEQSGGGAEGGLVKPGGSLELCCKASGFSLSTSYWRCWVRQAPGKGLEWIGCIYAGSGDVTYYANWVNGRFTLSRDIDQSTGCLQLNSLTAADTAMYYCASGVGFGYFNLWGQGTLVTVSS VL: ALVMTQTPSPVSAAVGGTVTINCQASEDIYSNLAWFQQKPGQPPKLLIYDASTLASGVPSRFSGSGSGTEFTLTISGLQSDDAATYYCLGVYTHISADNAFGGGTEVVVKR", "15 pM"],
  ["Y024148_h_IgG1f_AEASS (antibody, V domains shown, Human IgG1f with AEASS effector-silencing residues, kappa light chain) VH: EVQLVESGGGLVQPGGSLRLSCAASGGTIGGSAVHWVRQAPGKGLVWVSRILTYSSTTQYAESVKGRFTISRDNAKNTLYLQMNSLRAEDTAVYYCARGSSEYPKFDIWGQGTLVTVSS VL: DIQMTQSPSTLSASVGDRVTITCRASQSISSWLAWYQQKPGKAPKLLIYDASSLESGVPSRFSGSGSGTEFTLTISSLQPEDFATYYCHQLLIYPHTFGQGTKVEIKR", "1 pM"]
]}

Input line: Form field: reported Kd of Y024149_h_IgG1f_AEASS (antibody, V domains shown, Human IgG1f with AEASS effector-silencing residues, kappa light chain) VH: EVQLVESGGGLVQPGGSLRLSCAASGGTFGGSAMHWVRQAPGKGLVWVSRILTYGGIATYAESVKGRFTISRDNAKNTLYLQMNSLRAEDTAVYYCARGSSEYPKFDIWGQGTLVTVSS VL: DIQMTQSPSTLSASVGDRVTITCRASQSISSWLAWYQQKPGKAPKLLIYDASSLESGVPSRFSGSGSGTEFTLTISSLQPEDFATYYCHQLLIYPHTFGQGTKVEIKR
Output line: 1 pM
